TEST_SYSTEM: PDF enzyme (Streptococcus pneumoniae serotype 4, UniProt Q9F2F0)
Sequence (Q9F2F0 whole entry): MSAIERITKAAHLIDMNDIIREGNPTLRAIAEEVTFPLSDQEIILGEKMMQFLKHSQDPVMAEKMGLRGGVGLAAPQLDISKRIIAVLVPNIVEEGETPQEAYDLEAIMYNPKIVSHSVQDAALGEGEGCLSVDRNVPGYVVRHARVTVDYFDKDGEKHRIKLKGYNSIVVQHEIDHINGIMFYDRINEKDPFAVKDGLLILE
Mark YES only for IC50 values smaller than 50 nM; exact matches and larger values are NO.

q: I'd appreciate it if you could check whether CC(C)(C)[C@H](NC(=O)[C@H](CC1CCCC1)CN(O)C=O)C(=O)N1CCC(Nc2ccc(O)cc2)CC1 [Example 20] has IC50 smaller than 50 nM.
a: NO

q: Find out if reported IC50 for CC(C)(C)[C@H](NC(=O)[C@H](CC1CCCC1)CN(O)C=O)C(=O)N1CCC(NCc2ccc(O)c(O)c2)CC1 [Example 13] is less than 50 nM
a: YES

q: Decide: IC50 of COc1coc(CNC2CCN(C(=O)[C@@H](NC(=O)[C@H](CC3CCCC3)CN(O)C=O)C(C)(C)C)CC2)cc1=O [Example 29] strictly below 50 nM?
a: YES

* * *

Tested on: Streptococcus Pneumoniae Pen NS
MEASUREMENT_DESCRIPTION: MIC microdilution, S. Pneumoniae Pen NS
Type: cell-based
MEASUREMENT_CONDITIONS: microdilution, Mueller-Hinton Broth, 37° C., 24 hours, read-out: MIC Streptococcus Pneumoniae Pen NS
MEASURED_PROPERTY: MIC (µg/mL)
Number in µg/mL, nothing else.

[[record]]
compound = "COC(=O)c1ccc(CNC2CCN(C(=O)[C@@H](NC(=O)[C@H](CC3CCCC3)CN(O)C=O)C(C)(C)C)CC2)cc1"
test_system = "Streptococcus Pneumoniae Pen NS"
measured_property = "MIC"
test_result = 1.6

[[record]]
compound = "CC(C)(C)[C@H](NC(=O)[C@H](CC1CCCC1)CN(O)C=O)C(=O)N1CCC(NCc2ccc(C#N)cc2)CC1"
test_system = "Streptococcus Pneumoniae Pen NS"
measured_property = "MIC"
test_result = 0.4


Looking up CC(=O)NC[C@H]1CN(c2ccc(N3CCOCC3)c(F)c2)C(=O)O1 [Linezolid, reference compound] , I see its MIC listed as 0.8

For this compound ( COc1ccc(CNC2CCN(C(=O)[C@@H](NC(=O)[C@H](CC3CCCC3)CN(O)C=O)C(C)(C)C)CC2)c(OC)c1 ), measured MIC is 0.8

* * *

TEST_SYSTEM: UniProt P0A6K3
Sequence (P0A6K3 whole entry): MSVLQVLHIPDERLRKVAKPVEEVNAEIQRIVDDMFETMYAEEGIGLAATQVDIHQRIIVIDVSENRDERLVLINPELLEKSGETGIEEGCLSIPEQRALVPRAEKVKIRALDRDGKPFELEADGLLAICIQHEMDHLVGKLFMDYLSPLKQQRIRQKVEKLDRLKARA
MEASUREMENT_DESCRIPTION: PDF/FDH coupled enzyme assay, E. coli
Type: biochemical
MEASURED_PROPERTY: IC50 (nM)
Give the value in nM but do not write nM after it.

Below: 5 compounds and their reported IC50.
[[record]]
smiles_data = "Cc1ccc(CNC2CCN(C(=O)[C@@H](NC(=O)[C@@H](CC(=O)NO)CC3CCCC3)C(C)(C)C)CC2)cc1"
test_system = "UniProt P0A6K3"
measured_property = "IC50"
test_result = 150

[[record]]
smiles_data = "CC(C)(C)[C@H](NC(=O)[C@H](CC1CCCC1)CN(O)C=O)C(=O)N1CCC(NCc2ccc(F)cc2F)CC1"
test_system = "UniProt P0A6K3"
measured_property = "IC50"
test_result = 122

[[record]]
smiles_data = "CC(C)(C)[C@H](NC(=O)[C@H](CC1CCCC1)CN(O)C=O)C(=O)N1CCC(NCc2cc(=O)c(O)co2)CC1"
test_system = "UniProt P0A6K3"
measured_property = "IC50"
test_result = 160

[[record]]
smiles_data = "CC(C)(C)[C@H](NC(=O)[C@H](CC1CCCC1)CN(O)C=O)C(=O)N1CCC(NCc2ccc(O)c(O)c2)CC1"
test_system = "UniProt P0A6K3"
measured_property = "IC50"
test_result = 133

[[record]]
smiles_data = "CC(C)(C)[C@H](NC(=O)[C@H](CC1CCCC1)CN(O)C=O)C(=O)N1CCC(NCc2ccco2)CC1"
test_system = "UniProt P0A6K3"
measured_property = "IC50"
test_result = 117


Record summary for COc1coc(CNC2CCN(C(=O)[C@@H](NC(=O)[C@H](CC3CCCC3)CN(O)C=O)C(C)(C)C)CC2)cc1=O : reported IC50 = 155

* * *

TEST_SYSTEM: PDF enzyme (Streptococcus pyogenes serotype M1, UniProt P68771)
Sequence (P68771 whole entry): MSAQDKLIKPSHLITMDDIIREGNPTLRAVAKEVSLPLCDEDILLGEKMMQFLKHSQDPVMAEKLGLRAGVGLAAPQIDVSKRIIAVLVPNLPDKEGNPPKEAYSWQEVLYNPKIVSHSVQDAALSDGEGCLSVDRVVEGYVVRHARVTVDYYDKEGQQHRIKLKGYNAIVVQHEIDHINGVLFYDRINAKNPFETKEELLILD
MEASUREMENT_DESCRIPTION: PDF/FDH coupled enzyme assay, Streptococcus pyogenes
Assay type: biochemical
MEASURED_PROPERTY: IC50 (nM)
Numbers only; they are read as nM.

Record CC(C)(C)[C@H](NC(=O)[C@H](CC1CCCC1)CN(O)C=O)C(=O)N1CCC(NCc2ccc(F)cc2F)CC1 . Reported IC50: 83

Noted for CC(C)(C)[C@H](NC(=O)[C@H](CC1CCCC1)CN(O)C=O)C(=O)N1CCC(NCc2cc(=O)c(O)co2)CC1 : its IC50 reads 62

Consider CC(C)(C)[C@H](NC(=O)[C@H](CC1CCCC1)CN(O)C=O)C(=O)N1CCC(NCc2ccc(O)c(O)c2)CC1 . Its measured IC50 is 88

Value of IC50 reported for the compound CC(C)(C)[C@H](NC(=O)[C@H](CC1CCCC1)CN(O)C=O)C(=O)N1CCC(NCc2ccco2)CC1 is 63

Looking up Cc1ccc(CNC2CCN(C(=O)[C@@H](NC(=O)[C@@H](CC(=O)NO)CC3CCCC3)C(C)(C)C)CC2)cc1 , I found its IC50 recorded as 70

The compound identified as COc1coc(CNC2CCN(C(=O)[C@@H](NC(=O)[C@H](CC3CCCC3)CN(O)C=O)C(C)(C)C)CC2)cc1=O registered its IC50 at 54

* * *

MEASUREMENT_DESCRIPTION: Acute toxicity study in mice
MEASUREMENT_CONDITIONS: mouse, in vivo, po, 4000 mg/kg; ICR mice, orally, observed for 14 days
Experimental: The acute toxicity of the compounds of Example 5, 17 and 22 were tested using several groups of ICR mice each of 6 mice.
MEASURED_PROPERTY: LD50 at 14 days

A selection of reference data follows.
[[record]]
smiles_data = "CN(c1ccccc1)C1CCN(C(=O)[C@@H](NC(=O)[C@H](CC2CCCC2)CN(O)C=O)C(C)(C)C)CC1"
test_result = "> 2000 mg/kg"

[[record]]
smiles_data = "COc1ccc(CNC2CCN(C(=O)[C@@H](NC(=O)[C@H](CC3CCCC3)CN(O)C=O)C(C)(C)C)CC2)cc1"
test_result = "> 2000 mg/kg"


Turning now to a further compound:
Given item CC(C)(C)[C@H](NC(=O)[C@H](CC1CCCC1)CN(O)C=O)C(=O)N1CCC(Nc2ccc(F)cc2)CC1 , the value recorded as its LD50 at 14 days is > 2000 mg/kg

* * *

Tested on: Streptococcus Pneumoniae Pen NS
MEASUREMENT_DESCRIPTION: MIC microdilution, S. Pneumoniae Pen NS
Format: cell-based
MEASUREMENT_CONDITIONS: microdilution, Mueller-Hinton Broth, 37° C., 24 hours, read-out: MIC Streptococcus Pneumoniae Pen NS
MEASURED_PROPERTY: MIC (µg/mL)
Kindly provide the numeric value in µg/mL only, without the unit symbol.

[[record]]
compound = "CC(C)(C)[C@H](NC(=O)[C@H](CC1CCCC1)CN(O)C=O)C(=O)N1CCC(NCc2ccc(F)cc2)CC1 [Example 4]"
test_system = "Streptococcus Pneumoniae Pen NS"
test_result = 0.4

[[record]]
compound = "CC(C)(C)[C@H](NC(=O)[C@H](CC1CCCC1)CN(O)C=O)C(=O)N1CCC(NCc2cc(F)c(F)cc2F)CC1 [Example 14]"
test_system = "Streptococcus Pneumoniae Pen NS"
test_result = 0.4


So for CC(C)(C)[C@H](NC(=O)[C@H](CC1CCCC1)CN(O)C=O)C(=O)N1CCC(Nc2ccc(C#N)cc2)CC1 [Example 16] , the logged MIC turned out to be 1.6

// sample Cc1ccc(NC2CCN(C(=O)[C@@H](NC(=O)[C@H](CC3CCCC3)CN(O)C=O)C(C)(C)C)CC2)cc1 [Example 18] , its MIC was 0.4

So, CC(C)(C)[C@H](NC(=O)[C@H](CC1CCCC1)CN(O)C=O)C(=O)N1CCC(NCc2ccccn2)CC1 [Example 9] ? Its MIC was 1.6

Noted for COc1ccc(NC2CCN(C(=O)[C@@H](NC(=O)[C@H](CC3CCCC3)CN(O)C=O)C(C)(C)C)CC2)cc1 [Example 19] : its MIC reads 0.2

The compound listed as CC(C)(C)[C@H](NC(=O)[C@H](CC1CCCC1)CN(O)C=O)C(=O)N1CCC(Nc2ccc(O)cc2)CC1 [Example 20] has a reported MIC of 3.1

* * *

TEST_SYSTEM: PDF enzyme (Streptococcus pyogenes serotype M1, UniProt P68771)
MEASUREMENT_DESCRIPTION: PDF/FDH coupled enzyme assay, Streptococcus pyogenes
Format: biochemical
MEASUREMENT_CONDITIONS: PDF/FDH coupled assay, substrate fMAS, absorption at 340 nm; read-out: IC50 Streptococcus pyogenes
// IC50 lookup, one value per entry
Hi! Could you send only the number? It should be in nM, unit omitted.

Consider the reported IC50 for these compounds:
[[record]]
compound = "Cc1ccc(CNC2CCN(C(=O)[C@@H](NC(=O)[C@H](CC3CCCC3)CN(O)C=O)C(C)(C)C)CC2)cc1 [Example 2]"
test_result = 86

[[record]]
compound = "CN(c1ccccc1)C1CCN(C(=O)[C@@H](NC(=O)[C@H](CC2CCCC2)CN(O)C=O)C(C)(C)C)CC1 [Example 22]"
test_result = 42

[[record]]
compound = "CC(C)(C)[C@H](NC(=O)[C@H](CC1CCCC1)CN(O)C=O)C(=O)N1CCC(Nc2ccc(O)cc2)CC1 [Example 20]"
test_result = 61


Moving on to the next compound.
Form field IC50, entry CC(C)(C)[C@H](NC(=O)[C@H](CC1CCCC1)CN(O)C=O)C(=O)N1CCC(NCc2ccc(O)cc2)CC1 [Example 6] : 84
